Hi, to clarify the labels: yes covers logP from 4 upward, no covers anything below 4.

chemicalStructure: FC(F)(F)c1nc2c(Cl)c(Cl)c(Cl)cc2[nH]1
class: no

With those in mind, consider the next molecule.
Does FC(F)(F)c1nc2c(Cl)c(Cl)ccc2[nH]1 have a reported logP of at least 4?
no

* * *

protocol: from Büchel, K. H., & Draber, W. (1969). Structure-activity relationship of photosynthesis inhibition by NH-acidic pi-excessive heteroaromatics. In H. Metzner (Ed.), Progress in Photosynthesis Research: …
measurementSetup: pH 7.3
The following molecules are listed with their measured logD values.
Write the value as a bare number.

Consider FC(F)(F)c1nc2nc3cc(Cl)ccc3nc2[nH]1 . Its measured logD is 3.91

logD reading for FC(F)(F)c1nc2cnccc2[nH]1 : 0.94

Note to self: logD recorded for FC(F)(F)c1nc2nc3c(Cl)cc(Cl)cc3nc2[nH]1 was 5.18

The molecule identified as FC(F)(F)c1nc2nc3ccccc3nc2[nH]1 registered its logD at 3.08

Measured logD, FC(F)(F)c1nc2ncccc2[nH]1 : 1.38

Reported logD ( FC(F)(F)c1nc2ncc(Cl)cc2[nH]1 ) = 2.46

* * *

endpointName: logP

In the examples that follow, each entry is paired with its recorded logP.
chemicalStructure: FC(F)(F)c1nc2c(Cl)cccc2[nH]1
logP: 2.93
--
chemicalStructure: Cc1cc2nc[nH]c2cc1C
logP: 2.35
--
chemicalStructure: FC(F)(F)c1nc2cc(Cl)c(Cl)cc2[nH]1
logP: 3.99
--
chemicalStructure: Brc1nn[nH]c1Br
logP: 2.44
--
chemicalStructure: FC(F)(F)c1nc2cc(Cl)ccc2[nH]1
logP: 3.39

Entry FC(F)(F)c1nc2ccccc2[nH]1 ; logP = 2.67

The value of logP measured for the molecule CCCCCCCCc1ccc2[nH]c(C(F)(F)F)nc2c1 turned out to be 4.38

Record FC(F)(F)c1nc2cc(Br)ccc2[nH]1 , field logP: 3.57

* * *

endpointName: logP
Would you mind answering with just the numeric figure?

Value of measured logP for the entry Brc1nc(Br)c2[nH]c(Br)nc2n1 : 3.08

logP reading for Ic1nc(I)c(I)[nH]1 : 2.78

FC(F)(F)c1nc2c(Cl)ccc(Cl)c2[nH]1 yielded logP of 2.87

Consider FC(F)(F)c1nc2c(Cl)cc(Cl)cc2[nH]1 . Its measured logP is 3.49

* * *

Criterion: logP meeting or surpassing 3. Met: fulfilled. Not met: not fulfilled.

chemicalStructure: CSc1nc2cc(Cl)ccc2[nH]1
class: fulfilled
//
chemicalStructure: Cc1c(C)c(Cl)c2[nH]c(C(F)(F)F)nc2c1Cl
class: fulfilled

Hi, just wondering whether Brc1n[nH]c(Br)n1 shows logP of 3 or higher.
not fulfilled

Entry CCCCc1ccc2[nH]c(C(F)(F)F)nc2c1 : is its logP no less than 3?
fulfilled

Is reported logP greater than or equal to 3 here: FC(F)(F)c1nc2c(Cl)c(Cl)c(Cl)c(Cl)c2[nH]1
fulfilled

Exam item: decide whether the reported logP for Clc1nc(Cl)c(Cl)[nH]1 is at least 3.
not fulfilled

Would you say FC(F)(F)c1nc2c(Br)c(Br)c(Br)c(Br)c2[nH]1 shows logP at minimum 3?
fulfilled
